Hello, the source for this data is the supplement of paper PMC4466140, in case you need it.

Here the recorded SPOT peptide array binding signal intensity is given for each entry.
target: SpSla1-D3; assay: SPOT peptide array binding signal intensity (averaged, normalized) (arbitrary units (background-subtracted, floor 0; scale differs between SH3 domains)); higher = stronger binding of the SH3 domain to the peptide
PARAMETER: SPOT peptide array binding signal intensity

BINDER	EXPERIMENTAL_VALUE
LPPPPPPPPPPPLPQ	≤ 0
AATTSTPPLPRRRAT	≤ 0
AERNYAPRLPRRETS	≤ 0
GKKVRPLLVLLLSRA	≤ 0
VPVAPPPPPASLGQS	≤ 0
PALPSLPPPPLLNVD	≤ 0
SKSRLLIELPEGFFT	≤ 0
DLPLPDLPPEPPTEL	≤ 0
GRLRPKRIAPWHLIQ	≤ 0
VPKEPAPAPPPEPDM	8.5
RKRAPTPPAPSRSEK	≤ 0
RLSRLLLSLPPESFT	6
NRPAIRIPSLKKPAL	≤ 0
HKVLRPFLLRRLKKD	5.5
KIRRSSLMIPNPQQF	68
RPKRRAPPPVPKKPS	2
DDEDVPPQLPTRTKS	3
TSIEIPKRSPLRFTS	≤ 0
KRRTSLFPWLHKPGI	4
